- Tested on: HSSY-II tumor spheroid viability
- experiment-description: Anticancer human tumor HSSY-II cell line growth inhibition;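 further: spheroids exposed to compounds for seven days before reading; percent of DMSO vehicle control viability so 100% = untreated level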
- cond: second compound 0.3 µM; first compound 1 µM; stronger effect = lower value; spheroids with HUVEC and MSC
molecules and their reported viability, T/C
I only need the number, in %, no unit after it.

Would you please look over these solved cases?
Cc1cc(C)c(CNC(=O)c2cc(-c3ccc(CN4CCOCC4)cc3)cc3c2cnn3C2CCCC2)c(=O)[nH]1 + CC[C@@]1(O)C(=O)OCc2c1cc1n(c2=O)Cc2cc3c(CN(C)C)c(O)ccc3nc2-1    5.11
COc1cc(C)[nH]c(=O)c1CN1CCc2c(Cl)cc(C(OC)C3COC3)c(Cl)c2C1=O (stereo unspecified) + CC[C@@]1(O)C(=O)OCc2c1cc1n(c2=O)Cc2cc3c(CN(C)C)c(O)ccc3nc2-1    7.59
[2H]c1nc(C)nc([2H])c1-c1cc(NC[C@@H](C)c2cccc3c(C(=O)NC)ccnc23)ncn1 + CC[C@@]1(O)C(=O)OCc2c1cc1n(c2=O)Cc2cc3c(CN(C)C)c(O)ccc3nc2-1    6.87
CC1COCCN1c1cc(-c2ccnn2C)c2ccnc(-c3ccn[nH]3)c2n1 (stereo unspecified) + CC[C@@]1(O)C(=O)OCc2c1cc1n(c2=O)Cc2cc3c(CN(C)C)c(O)ccc3nc2-1    1.6
CC(C)n1c(=O)n(C)c2cnc3cc(F)c(-c4ccc(OCCCN5CCCCC5)nc4)cc3c21 + CC[C@@]1(O)C(=O)OCc2c1cc1n(c2=O)Cc2cc3c(CN(C)C)c(O)ccc3nc2-1    5.84

[ask] I'm curious: which viability, T/C was measured for COc1ccc([C@@H](O)c2cc(-c3ncnc4cc(N5CCOCC5)ccc34)c(F)cc2Cl)nn1 + CC[C@@]1(O)C(=O)OCc2c1cc1n(c2=O)Cc2cc3c(CN(C)C)c(O)ccc3nc2-1 tested on HSSY-II tumor spheroid viability?
[reply] 2.36
